Would you kindly list Perturb-seq pooled growth sgRNA counts, d10 for each of these substances?
system: K562 CRISPRi cells; assay: Perturb-seq pooled growth measurement (sgRNA counts, growth phenotype γ, relative activity); type: cell-based, human; conditions: sequencing read counts; 10 days of growth (day twelve after transduction)

May I ask what Perturb-seq pooled growth sgRNA counts, d10 has been recorded for ATP5E_−_57607036.23-P1P2_01: sgRNA targeting ATP5E, GGTGTCCTGGGGCACTCTGT, SEQ ID NO: 152 (listed as DNA, chemistry not fully specified) ?
8806

What does the record list as Perturb-seq pooled growth sgRNA counts, d10 for RPS18_+_33239917.23-P1P2_01: sgRNA targeting RPS18, GCTGCAATGCCGCTGGATCA, SEQ ID NO: 41 (listed as DNA, chemistry not fully specified) ?
2571

Can you look up the measured Perturb-seq pooled growth sgRNA counts, d10 of GNB2L1_+_180670873.23-P1P2_02: sgRNA targeting GNB2L1, GTGCAAGACGGCGGCAGGAG, SEQ ID NO: 59 (listed as DNA, chemistry not fully specified) for me?
7618

Can you look up the measured Perturb-seq pooled growth sgRNA counts, d10 of CAD_+_27440280.23-P1P2_06: sgRNA targeting CAD, GGCTGGAGAGTAGCCGGGCG, SEQ ID NO: 104 (listed as DNA, chemistry not fully specified) for me?
4365

Perturb-seq pooled growth sgRNA counts, d10 lookup needed for POLR1D_+_28196016.23-P1_00: sgRNA targeting POLR1D, GGGAAGCAAGGACCGACCGA, SEQ ID NO: 11 (listed as DNA, chemistry not fully specified) , thanks.
1496

---

Exercise: for every item that follows, state its recorded Perturb-seq pooled growth sgRNA counts, T0.
tested on: K562 CRISPRi cells; assay: Perturb-seq pooled growth measurement (sgRNA counts, growth phenotype γ, relative activity); type: cell-based, human; conditions: sequencing read counts; T0 = day two after transduction
In your answer, state the number alone without any accompanying words.

For non-targeting_00283: non-targeting negative control sgRNA, GGGCCGACGGATAGGAGGGA, SEQ ID NO: 166 (listed as DNA, chemistry not fully specified) [reference compound] , what is its reported Perturb-seq pooled growth sgRNA counts, T0?
8188

For the substance RAN_+_131356438.23-P1P2_03: sgRNA targeting RAN, GGGGGTCGCTGCGCTTAGGG, SEQ ID NO: 71 (listed as DNA, chemistry not fully specified) , what Perturb-seq pooled growth sgRNA counts, T0 is on record?
5056

Look up Perturb-seq pooled growth sgRNA counts, T0 for this substance: TUBB_+_30688126.23-P1_06: sgRNA targeting TUBB, GCGGCAGGACGGTTCTGAGA, SEQ ID NO: 107 (listed as DNA, chemistry not fully specified)
6235

I have this substance here, HSPE1_+_198365089.23-P1P2_02: sgRNA targeting HSPE1, GGAGACTGGCAGTCCGGCCC, SEQ ID NO: 67 (listed as DNA, chemistry not fully specified) , and I need its recorded Perturb-seq pooled growth sgRNA counts, T0.
7969

Item under review: POLR2H_+_184081251.23-P1P2_12: sgRNA targeting POLR2H, GGGGCCACGAGAGCAGGAGA, SEQ ID NO: 117 (listed as DNA, chemistry not fully specified) . Reported Perturb-seq pooled growth sgRNA counts, T0?
5334

Recorded Perturb-seq pooled growth sgRNA counts, T0 of non-targeting_00089: non-targeting negative control sgRNA, GGGGTGAGGGTCCAATTCGG, SEQ ID NO: 164 (listed as DNA, chemistry not fully specified) [reference compound] , please.
10841

What Perturb-seq pooled growth sgRNA counts, T0 value was documented for this substance, HSPA9_−_137911079.23-P1P2_08: sgRNA targeting HSPA9, GGAGCTGCTCGATGCGGTGG, SEQ ID NO: 134 (listed as DNA, chemistry not fully specified) ?
3137

I have this substance here, DBR1_+_137893744.23-P1P2_00: sgRNA targeting DBR1, GTTTGCAGGAGTCTACACCC, SEQ ID NO: 78 (listed as DNA, chemistry not fully specified) , and I need its recorded Perturb-seq pooled growth sgRNA counts, T0.
13446

Look up Perturb-seq pooled growth sgRNA counts, T0: RPS18_+_33239917.23-P1P2_04: sgRNA targeting RPS18, GCTGCGATCCCGCTGGATCA, SEQ ID NO: 44 (listed as DNA, chemistry not fully specified)
5132

Which measured Perturb-seq pooled growth sgRNA counts, T0 value corresponds to BCR_+_23523092.23-P1P2_04: sgRNA targeting BCR, GCGCGCGGAGCCCGTCTCAG, SEQ ID NO: 127 (listed as DNA, chemistry not fully specified) ?
5355

Query: Perturb-seq pooled growth sgRNA counts, T0; subject: DBR1_+_137893744.23-P1P2_08: sgRNA targeting DBR1, GTTTGCAGTAGTCTACACCC, SEQ ID NO: 82 (listed as DNA, chemistry not fully specified)
5326

Look up Perturb-seq pooled growth sgRNA counts, T0 for this substance: ALDOA_+_30077139.23-P1P2_07: sgRNA targeting ALDOA, GGTCACCAGGCCCCCTTCTG, SEQ ID NO: 158 (listed as DNA, chemistry not fully specified)
4830

Perturb-seq pooled growth sgRNA counts, T0 for GINS1_−_25388381.23-P1P2_08: sgRNA targeting GINS1, GGACTAGAGCGAAAGGAGTG, SEQ ID NO: 94 (listed as DNA, chemistry not fully specified) ?
18173

Quick one: Perturb-seq pooled growth sgRNA counts, T0 for POLR1D_+_28196016.23-P1_01: sgRNA targeting POLR1D, GGGAAGCCAGGACCGACCGA, SEQ ID NO: 76 (listed as DNA, chemistry not fully specified) ?
12679

I am curious: what Perturb-seq pooled growth sgRNA counts, T0 value has been reported for GNB2L1_+_180670873.23-P1P2_08: sgRNA targeting GNB2L1, GTGCAAGGTGGCGGCAGGAG, SEQ ID NO: 56 (listed as DNA, chemistry not fully specified) ?
24451

Looking for the measured Perturb-seq pooled growth sgRNA counts, T0 of BCR_+_23523092.23-P1P2_00: sgRNA targeting BCR, GCGCGCGGGGCCCGTCTCAG, SEQ ID NO: 125 (listed as DNA, chemistry not fully specified) , can you help?
9644

Which Perturb-seq pooled growth sgRNA counts, T0 is listed for DBR1_+_137893744.23-P1P2_01: sgRNA targeting DBR1, GATTGCAGGAGTCTACACCC, SEQ ID NO: 79 (listed as DNA, chemistry not fully specified) ?
9446

For the substance ALDOA_+_30077139.23-P1P2_13: sgRNA targeting ALDOA, GGTCACCAGGACCCCTTTTG, SEQ ID NO: 160 (listed as DNA, chemistry not fully specified) , what Perturb-seq pooled growth sgRNA counts, T0 is on record?
6699

I have this substance here, HSPA5_+_128003624.23-P1P2_08: sgRNA targeting HSPA5, GAGCCGAGTGGGCGACGGTG, SEQ ID NO: 90 (listed as DNA, chemistry not fully specified) , and I need its recorded Perturb-seq pooled growth sgRNA counts, T0.
10148

This collection of values is drawn from patent US20220259593A1.
